Molecular target: protein-protein interaction between SOS1 and KRAS G12D (Homo sapiens (Human), UniProt Q07889)
Sequence (Q07889 564-1049, stated change not applied): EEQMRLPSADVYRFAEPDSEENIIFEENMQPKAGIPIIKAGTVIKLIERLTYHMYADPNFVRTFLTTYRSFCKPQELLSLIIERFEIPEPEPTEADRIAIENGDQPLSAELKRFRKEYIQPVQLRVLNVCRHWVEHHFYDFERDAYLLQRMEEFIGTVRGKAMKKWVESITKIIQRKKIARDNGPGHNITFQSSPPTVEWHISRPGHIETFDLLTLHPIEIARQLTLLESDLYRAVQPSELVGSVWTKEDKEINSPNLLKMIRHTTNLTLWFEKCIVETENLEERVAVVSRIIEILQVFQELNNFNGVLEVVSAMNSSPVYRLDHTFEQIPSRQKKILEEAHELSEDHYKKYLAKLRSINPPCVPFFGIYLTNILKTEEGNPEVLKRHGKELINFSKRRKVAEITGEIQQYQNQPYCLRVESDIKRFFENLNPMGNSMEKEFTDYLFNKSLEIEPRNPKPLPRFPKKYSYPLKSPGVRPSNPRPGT
Assay: KRAS::SOS1 AlphaScreen Binding Assay
Conditions: Table 20; KRAS::SOS1 AlphaScreen (SOS1 / KRAS G12D)
quantity kind: IC50 (nM)
Return type: number; implicit unit nM.

Cc1nc(N[C@H](C)c2cccc(C(F)(F)F)c2C)c2cn([C@H]3C[C@@](O)(C(F)(F)F)C3)c(=O)cc2n1	27
Cc1nc(N[C@H](C)c2cccc(C(F)F)c2F)c2cn(C3(C)CC(F)(F)C3)c(=O)cc2n1	21
Cc1nc(N[C@H](C)c2cccc3c2CCC3(F)F)c2cn(C34CC(C3)C4)c(=O)cc2n1	3
Cc1nc(N[C@H](C)c2cccc(C(F)(F)C3CCCO3)c2)c2cn(C3(C)CC3)c(=O)c(F)c2n1 (some centres unmarked)	4
Cc1nc(N[C@H](C)c2cccc(C(F)F)c2C)c2cn(C3(C(F)F)CC3)c(=O)cc2n1	3

Fill in the blank: the reported IC50 of `Cc1nc(N[C@H](C)c2cccc(C(F)F)c2F)c2cn(C3(c4ccncc4)CC3)c(=O)cc2n1` is ____. 8

Fill in the blank: the reported IC50 of `Cc1nc(N[C@H](C)c2cccc(C(F)F)c2F)c2cn([C@H]3C[C@H](F)C3)c(=O)c(F)c2n1` is ____. 8

Fill in the blank: the reported IC50 of `Cc1nc(N[C@H](C)c2cccc(C(F)(F)[C@@H]3CCCO3)c2F)c2cn(C3(C(F)F)CC3)c(=O)c(F)c2n1` is ____. 5
